Here the recorded Enzyme Inhibitory Activity (%, 10^−6 M) is given for each entry.
Tested on: cAMP-specific phosphodiesterase (PDE IV)
Assay: Inhibition of the PDE IV enzyme derived from a dog trachea
Type: biochemical
Conditions: test compound 10^−6 M; PDE IV from dog tracheal smooth muscle; substrate cAMP 1 μM
Quick note: give the figure in %, leave out the unit.

Worked set:
[[record]]
molecule = "COc1ccc(CCc2c(Cl)cncc2Cl)c2c1OC(C)(C)C2 [Compound 45]"
output_unit = "%"
recorded_number = 74

[[record]]
molecule = "COc1ccc(C(=O)Nc2c(Cl)cncc2Cl)c2c1OCC2CC(=O)N1CCc2ccccc2C1 (racemic) [Compound 22]"
output_unit = "%"
recorded_number = 85

[[record]]
molecule = "COc1ccc(C(C#N)Cc2c(Cl)cncc2Cl)c2c1OC(C)(C)C2 (racemic) [Compound 63]"
output_unit = "%"
recorded_number = 85


Data request: Could you tell me which Enzyme Inhibitory Activity (%, 10^−6 M) is on file for COc1ccc(CCc2c(Cl)cncc2Cl)c2c1OC1(CCCCC1)C2.CS(=O)(=O)O [Compound 54] ?
Data returned: 81

Data request: Name the recorded Enzyme Inhibitory Activity (%, 10^−6 M) for CCOC(=O)CC1COc2c(OC)ccc(C(=O)Nc3ccncc3)c21 (racemic) [Compound 6] .
Data returned: 66

Data request: What value of Enzyme Inhibitory Activity (%, 10^−6 M) has been recorded for this entry: COc1ccc(C(=O)Nc2c(Cl)cncc2Cl)c2c1OC(C)(C)C=C2 [Compound 121]
Data returned: 85

Data request: Need Enzyme Inhibitory Activity (%, 10^−6 M) of COc1ccc(/C=C/c2ccncc2)c2c1OCC2C (racemic) [Compound 79] , thanks.
Data returned: 45
